- target system: human arginase I (ARG I) (Homo sapiens)
- Sequence (P05089 1-322): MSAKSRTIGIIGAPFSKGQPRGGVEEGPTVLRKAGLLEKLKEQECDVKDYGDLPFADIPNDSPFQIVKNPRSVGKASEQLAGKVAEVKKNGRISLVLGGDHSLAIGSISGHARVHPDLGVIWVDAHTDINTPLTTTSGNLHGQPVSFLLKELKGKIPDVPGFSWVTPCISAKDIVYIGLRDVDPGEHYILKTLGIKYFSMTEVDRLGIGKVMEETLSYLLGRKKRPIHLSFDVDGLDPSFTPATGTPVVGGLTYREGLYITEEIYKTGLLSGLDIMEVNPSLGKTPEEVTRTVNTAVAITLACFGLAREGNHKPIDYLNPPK
Listed here are compounds together with their documented IC50.

| compound | target system | IC50 |
| --- | --- | --- |
| NC(CCCCB(O)O)(C(=O)O)[C@H]1C[C@@H](NCc2ccc3c(c2)Cc2ccccc2-3)C1 (some centres unmarked) | human arginase I (ARG I) (Homo sapiens) | 0.1 to 25 nM |
| NC(CCCCB(O)O)(C(=O)O)C1CC2CCC(C1)N2Cc1ccc(F)c(F)c1 (centres unmarked) | human arginase I (ARG I) (Homo sapiens) | 0.1 to 25 nM |
| NC(CCCCB(O)O)(C(=O)O)[C@H]1C[C@@H](NCc2cccc3c(F)cccc23)C1 (some centres unmarked) | human arginase I (ARG I) (Homo sapiens) | 0.1 to 25 nM |
| CNC(CCCCB(O)O)(CCN1CCC(c2ccc(Cl)cc2)CC1)C(=O)O (centres unmarked) | human arginase I (ARG I) (Homo sapiens) | 101 to 500 nM |
| NC(CCCCB(O)O)(C(=O)O)[C@H]1C[C@@H](NCc2ccc(O)cc2)C1 (some centres unmarked) | human arginase I (ARG I) (Homo sapiens) | 26 to 100 nM |
| NC(CCCCB(O)O)(C(=O)O)[C@H]1C[C@@H](NCC2CCN(c3ccc(C(=O)O)cc3)CC2)C1 (mixture of isomers) | human arginase I (ARG I) (Homo sapiens) | 26 to 100 nM |
| NC(CCCCB(O)O)(C(=O)O)[C@H]1C[C@@H](NCCc2ccc(-c3ccccc3)cc2)C1 (some centres unmarked) | human arginase I (ARG I) (Homo sapiens) | 26 to 100 nM |
| NC(CCCCB(O)O)(C(=O)O)[C@H]1C[C@@H](NCc2ccc(-c3ccc(C(F)(F)F)cc3)cc2)C1 (some centres unmarked) | human arginase I (ARG I) (Homo sapiens) | 0.1 to 25 nM |
| NC(CCCCB(O)O)(C(=O)O)C1CC2CCC(C1)N2Cc1ccc(Cl)cc1 (centres unmarked) | human arginase I (ARG I) (Homo sapiens) | 0.1 to 25 nM |
| CCN(CCO)CC[C@](N)(CCCCB(O)O)C(=O)O | human arginase I (ARG I) (Homo sapiens) | 501 to 1500 nM |
| CCCN(C)CC[C@](N)(CCCCB(O)O)C(=O)O | human arginase I (ARG I) (Homo sapiens) | 101 to 500 nM |
| NC(CCCCB(O)O)(C(=O)O)[C@H]1C[C@@H](NCc2ccc(-c3ccccc3)nc2)C1 (some centres unmarked) | human arginase I (ARG I) (Homo sapiens) | 26 to 100 nM |
| NC(CCCCB(O)O)(C(=O)O)[C@H]1C[C@@H](NCc2c(F)cc(-c3ccc(Cl)cc3)cc2F)C1 (mixture of isomers) | human arginase I (ARG I) (Homo sapiens) | 26 to 100 nM |
| CC(C)CNCC[C@](N)(CCCCB(O)O)C(=O)O | human arginase I (ARG I) (Homo sapiens) | 101 to 500 nM |
| Cc1ccc(F)c(-c2ccc(CN[C@H]3C[C@@H](C(N)(CCCCB(O)O)C(=O)O)C3)cc2F)c1 (mixture of isomers) | human arginase I (ARG I) (Homo sapiens) | 0.1 to 25 nM |
| NC(CCCCB(O)O)(C(=O)O)[C@H]1C[C@@H](NCCc2ccc(F)c(F)c2)C1 (some centres unmarked) | human arginase I (ARG I) (Homo sapiens) | 26 to 100 nM |
| NC(CCCCB(O)O)(C(=O)O)[C@H]1C[C@@H](NC2Cc3ccccc3C2)C1 (some centres unmarked) | human arginase I (ARG I) (Homo sapiens) | 0.1 to 25 nM |
| NC1(Cc2ccc(Cl)cc2)CC(C(N)(CCCCB(O)O)C(=O)O)C1 (centres unmarked) | human arginase I (ARG I) (Homo sapiens) | 101 to 500 nM |
| NC(CCCCB(O)O)(C(=O)O)[C@H]1C[C@@H](NCc2cccc(-c3ccccc3)c2)C1 (some centres unmarked) | human arginase I (ARG I) (Homo sapiens) | 26 to 100 nM |
| NC(CCCCB(O)O)(C(=O)O)[C@H]1C[C@@H](NCc2ccccc2-c2ccc(C(F)(F)F)cc2)C1 (some centres unmarked) | human arginase I (ARG I) (Homo sapiens) | 26 to 100 nM |
| NC(CCCCB(O)O)(C(=O)O)[C@H]1C[C@@H](NCc2ccccc2N2CCOCC2)C1 (some centres unmarked) | human arginase I (ARG I) (Homo sapiens) | 26 to 100 nM |
| NC(CCCCB(O)O)(C(=O)O)[C@H]1CC[C@@H](NCc2ccc(-c3ccccc3)cc2)C1 (some centres unmarked) | human arginase I (ARG I) (Homo sapiens) | 26 to 100 nM |
| CCN(CC)CC[C@](N)(CCCCB(O)O)C(=O)O | human arginase I (ARG I) (Homo sapiens) | 101 to 500 nM |
| CNC(CCCCB(O)O)(CCN1CCc2c(Cl)cccc2C1)C(=O)O (centres unmarked) | human arginase I (ARG I) (Homo sapiens) | 101 to 500 nM |
| NC(CCCCB(O)O)(C(=O)O)C1CC2CCC(C1)N2Cc1ccccc1 (centres unmarked) | human arginase I (ARG I) (Homo sapiens) | 0.1 to 25 nM |
| NC(CCCCB(O)O)(C(=O)O)[C@H]1C[C@@H](NCc2ccc(-c3ccc(F)cc3)cc2)C1 (some centres unmarked) | human arginase I (ARG I) (Homo sapiens) | 0.1 to 25 nM |
| CNC(CCCCB(O)O)(CCN1CCC(C)(C)CC1)C(=O)O (centres unmarked) | human arginase I (ARG I) (Homo sapiens) | 101 to 500 nM |
| NC(CCCCB(O)O)(C(=O)O)[C@H]1C[C@@H](NCc2ccc3c(c2)CCO3)C1 (some centres unmarked) | human arginase I (ARG I) (Homo sapiens) | 26 to 100 nM |
| NC(CCCCB(O)O)(C(=O)O)C1CC2CCC(C1)N2 (centres unmarked) | human arginase I (ARG I) (Homo sapiens) | 26 to 100 nM |
| NC(CCCCB(O)O)(C(=O)O)[C@H]1C[C@@H](NCCCc2cc(F)cc(Cl)c2)C1 (some centres unmarked) | human arginase I (ARG I) (Homo sapiens) | 26 to 100 nM |
| NC(CCCCB(O)O)(C(=O)O)C1CC2CCC(C1)N2Cc1ccc(Cl)c(Cl)c1 (centres unmarked) | human arginase I (ARG I) (Homo sapiens) | 0.1 to 25 nM |
| NC(CCCCB(O)O)(C(=O)O)[C@H]1C[C@@H](NCc2ccc(Oc3ccc(Cl)cc3)cc2)C1 (some centres unmarked) | human arginase I (ARG I) (Homo sapiens) | 0.1 to 25 nM |
